biological target: S-adenosylmethionine synthase isoform type-2 (Homo sapiens, UniProt P31153); assay: Inhibition of recombinant human MAT2A expressed in baculovirus infected Sf9 cells assessed as S-adenosyl methionine production using L-methionine as substrate preincubated for 60 mins followed by substrate addition and measured after 60 mins in presence of ATP relative to control
Sequence (P31153 whole entry, looked up, canonical isoform): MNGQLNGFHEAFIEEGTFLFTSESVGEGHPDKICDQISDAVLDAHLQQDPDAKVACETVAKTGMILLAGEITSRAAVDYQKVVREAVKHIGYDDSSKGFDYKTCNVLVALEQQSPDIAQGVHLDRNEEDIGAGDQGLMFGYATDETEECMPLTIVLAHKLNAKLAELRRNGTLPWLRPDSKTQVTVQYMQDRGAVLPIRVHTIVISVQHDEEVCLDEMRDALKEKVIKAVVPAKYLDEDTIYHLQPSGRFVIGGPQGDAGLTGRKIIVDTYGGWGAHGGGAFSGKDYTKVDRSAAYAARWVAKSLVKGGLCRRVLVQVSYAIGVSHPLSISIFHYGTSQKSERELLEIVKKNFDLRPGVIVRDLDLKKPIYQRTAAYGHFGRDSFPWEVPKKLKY
The label depends only on Imax: yes if it is at least 60%, no if it is smaller.

COMPOUND: Cc1nc(NCC2CC2)nc2c1COCC21CCN(Cc2ccccc2F)C1 (stereo unspecified)
MEASUREMENT TARGET: S-adenosylmethionine synthase isoform type-2 (Homo sapiens, UniProt P31153)
QUALITATIVE LABEL: no
//
COMPOUND: COc1ccc(N2Cc3cnc(NCC4CC4)nc3C3(CCN(Cc4ccccc4F)C3)C2=O)cc1 (stereo unspecified)
MEASUREMENT TARGET: S-adenosylmethionine synthase isoform type-2 (Homo sapiens, UniProt P31153)
QUALITATIVE LABEL: no
//
COMPOUND: COc1ccc(N2Cc3cnc(NCC4CC4)nc3C3(CCN(Cc4ccsc4)C3)C2=O)cc1 (stereo unspecified)
MEASUREMENT TARGET: S-adenosylmethionine synthase isoform type-2 (Homo sapiens, UniProt P31153)
QUALITATIVE LABEL: no
//
COMPOUND: COc1ccc(N2Cc3cnc(NCC4CC4)nc3C3(CCN(Cc4cnc(N)s4)C3)C2=O)cc1 (stereo unspecified)
MEASUREMENT TARGET: S-adenosylmethionine synthase isoform type-2 (Homo sapiens, UniProt P31153)
QUALITATIVE LABEL: no
//
COMPOUND: COc1ccc(N2Cc3cnc(NCC4CC4)nc3C3(CCN(Cc4ccon4)C3)C2=O)cc1 (stereo unspecified)
MEASUREMENT TARGET: S-adenosylmethionine synthase isoform type-2 (Homo sapiens, UniProt P31153)
QUALITATIVE LABEL: no
//
COMPOUND: CCCNc1ncc2cn(-c3ccc(OC)cc3)c(=O)c(-c3ccc(Br)cc3)c2n1
MEASUREMENT TARGET: S-adenosylmethionine synthase isoform type-2 (Homo sapiens, UniProt P31153)
QUALITATIVE LABEL: yes
//
COMPOUND: COc1ccc(N2Cc3c(C)nc(NCC4CC4)nc3C3(CCN(Cc4ccccc4F)C3)C2=O)cc1 (stereo unspecified)
MEASUREMENT TARGET: S-adenosylmethionine synthase isoform type-2 (Homo sapiens, UniProt P31153)
QUALITATIVE LABEL: no
//
COMPOUND: COc1ccc(N2Cc3cnc(NCC4CC4)nc3C3(CCN(Cc4cscn4)C3)C2=O)cc1 (stereo unspecified)
MEASUREMENT TARGET: S-adenosylmethionine synthase isoform type-2 (Homo sapiens, UniProt P31153)
QUALITATIVE LABEL: yes
//
COMPOUND: COc1ccc(-n2cc3cnc(NCCC(F)(F)F)nc3c(-c3ccc(Br)cc3)c2=O)cc1
MEASUREMENT TARGET: S-adenosylmethionine synthase isoform type-2 (Homo sapiens, UniProt P31153)
QUALITATIVE LABEL: yes
//
COMPOUND: COc1ccc(-n2cc3cnc(N(C)CC(F)(F)F)nc3c(-c3ccc(Br)cc3)c2=O)cc1
MEASUREMENT TARGET: S-adenosylmethionine synthase isoform type-2 (Homo sapiens, UniProt P31153)
QUALITATIVE LABEL: yes
//
COMPOUND: CCNc1ncc2cn(-c3ccc(OC)cc3)c(=O)c(-c3ccc(Br)cc3)c2n1
MEASUREMENT TARGET: S-adenosylmethionine synthase isoform type-2 (Homo sapiens, UniProt P31153)
QUALITATIVE LABEL: yes
//
COMPOUND: COc1ccc(N2Cc3cnc(NCC4CC4)nc3C3(CCN(Cc4cc[nH]n4)C3)C2=O)cc1 (stereo unspecified)
MEASUREMENT TARGET: S-adenosylmethionine synthase isoform type-2 (Homo sapiens, UniProt P31153)
QUALITATIVE LABEL: yes
//
COMPOUND: COc1ccc(N2Cc3cnc(NCC4CC4)nc3C3(CCN(Cc4cc[nH]c4)C3)C2=O)cc1 (stereo unspecified)
MEASUREMENT TARGET: S-adenosylmethionine synthase isoform type-2 (Homo sapiens, UniProt P31153)
QUALITATIVE LABEL: no
//
COMPOUND: COc1ccc(-n2cc3cnc(NCC(F)(F)F)nc3c(-c3ccc(Br)cc3)c2=O)cc1
MEASUREMENT TARGET: S-adenosylmethionine synthase isoform type-2 (Homo sapiens, UniProt P31153)
QUALITATIVE LABEL: yes
//
COMPOUND: COc1ccc(-n2cc3cnc(NCC4CC4)nc3c(-c3ccc(Br)cc3)c2=O)cc1
MEASUREMENT TARGET: S-adenosylmethionine synthase isoform type-2 (Homo sapiens, UniProt P31153)
QUALITATIVE LABEL: yes
